System: SKOV-3 (ovarian cancer)
Test: In vitro cytotoxicity of camptothecin analogues (CellTiter-Glo)
Assay type: cell-based
Settings: Homo sapiens, SK-OV-3, 96 h; 4 d incubation; read-out: pIC50 SKOV-3 (converted)
# MET = IC50 below 1 nM (exclusive); NOT MET = IC50 at/above 1 nM

>>> class_name("CC[C@@]1(O)C(=O)OCc2c1cc1n(c2=O)Cc2c-1nc1cc(F)c(C)cc1c2CN1CC(F)(CO)C1")
"NOT MET"

IN: Please indicate whether the reported IC50 of CC[C@@]1(O)C(=O)OCc2c1cc1n(c2=O)Cc2c-1nc1cc(F)c(C)cc1c2CNC(=O)OC is strictly below 1 nM.
OUT: MET

IN: Please indicate whether the reported IC50 of CC[C@@]1(O)C(=O)OCc2c1cc1n(c2=O)Cc2c-1nc1cc(F)c(N)cc1c2CN1CCOCC1 is strictly below 1 nM.
OUT: NOT MET

====

System: SK-BR-3 (breast cancer)
Test: In vitro cytotoxicity of camptothecin analogues (CellTiter-Glo)
Format: cell-based
Settings: Homo sapiens, SK-BR-3, 96 h; 4 d incubation; read-out: pIC50 SKBR-3 (converted)
# MET = IC50 below 5 nM (exclusive); NOT MET = IC50 at/above 5 nM

>>> class_name("CC[C@@]1(O)C(=O)OCc2c1cc1n(c2=O)Cc2c-1nc1cc(F)c(C)cc1c2CNC(=O)NC [Compound 132]")
"NOT MET"
>>> class_name("CC[C@@]1(O)C(=O)OCc2c1cc1n(c2=O)Cc2c-1nc1cc(F)c(C)cc1c2CNC(=O)OC [Compound 138]")
"MET"
>>> class_name("CC[C@@]1(O)C(=O)OCc2c1cc1n(c2=O)Cc2c-1nc1cc(F)c(C)cc1c2CNC(=O)NCc1ccc(N)cc1 [Compound 134]")
"NOT MET"
>>> class_name("CC[C@@]1(O)C(=O)OCc2c1cc1n(c2=O)Cc2c-1nc1cc(F)c(N)cc1c2CO [Compound 141]")
"MET"
>>> class_name("CC[C@@]1(O)C(=O)OCc2c1cc1n(c2=O)Cc2c-1nc1cc(F)c(C)cc1c2CN1CC(CO)C1 [Compound 119]")
"MET"
>>> class_name("CC[C@@]1(O)C(=O)OCc2c1cc1n(c2=O)Cc2c-1nc1cc(F)c(C)cc1c2CN1CCCCC1 [Compound 110]")
"MET"
>>> class_name("CC[C@@]1(O)C(=O)OCc2c1cc1n(c2=O)Cc2c-1nc1cc(F)c(C)cc1c2CN1CCN(C(=O)OC(C)(C)C)CC1 [Compound 111]")
"NOT MET"
>>> class_name("CC[C@@]1(O)C(=O)OCc2c1cc1n(c2=O)Cc2c-1nc1cc(F)c(N)cc1c2CNC(=O)NCCO [Compound 151]")
"MET"
>>> class_name("CC[C@@]1(O)C(=O)OCc2c1cc1n(c2=O)Cc2c-1nc1cc(F)c(OC)cc1c2CNS(=O)(=O)c1ccccc1 [Compound 126]")
"MET"
>>> class_name("CC[C@@]1(O)C(=O)OCc2c1cc1n(c2=O)Cc2c-1nc1cc(F)c(OC)cc1c2CNS(C)(=O)=O [Compound 123]")
"MET"

IN: Please indicate whether the reported IC50 of CC[C@@]1(O)C(=O)OCc2c1cc1n(c2=O)Cc2c-1nc1cc(F)c(C)cc1c2CNS(=O)(=O)CCO [Compound 129] is strictly below 5 nM.
OUT: MET

IN: Please indicate whether the reported IC50 of CC[C@@]1(O)C(=O)OCc2c1cc1n(c2=O)Cc2c-1nc1cc(F)c(OC)cc1c2CN1CCN(S(=O)(=O)c2ccccc2)CC1 [Compound 103] is strictly below 5 nM.
OUT: MET

IN: Please indicate whether the reported IC50 of CC[C@@]1(O)C(=O)OCc2c1cc1n(c2=O)Cc2c-1nc1cc(F)c(OC)cc1c2CNC(=O)NCCO [Compound 137] is strictly below 5 nM.
OUT: NOT MET

IN: Please indicate whether the reported IC50 of CC[C@@]1(O)C(=O)OCc2c1cc1n(c2=O)Cc2c-1nc1cc(F)c(N)cc1c2CNS(=O)(=O)CCO [Compound 150] is strictly below 5 nM.
OUT: NOT MET

====

Quick reference for IC50 among some compounds
System: ZR-75-1 (breast cancer)
Assay: In vitro cytotoxicity of camptothecin analogues (CellTiter-Glo)
Type: cell-based
Conditions: Homo sapiens, ZR-75-1, 120 h, read-out: pIC50 ZR-75 (converted)
Report as: number unit

>>> observed_result("CC[C@@]1(O)C(=O)OCc2c1cc1n(c2=O)Cc2c-1nc1cc(F)c(OC)cc1c2CNS(=O)(=O)c1ccc(N)cc1")
"4.27 nM"

Record summary for CC[C@@]1(O)C(=O)OCc2c1cc1n(c2=O)Cc2c-1nc1cc(F)c(OC)cc1c2CNC(=O)NCc1ccc(N)cc1 : reported IC50 = 13.2 nM

====

System: SKOV-3 (ovarian cancer)
Test: In vitro cytotoxicity of camptothecin analogues (CellTiter-Glo)
Type: cell-based
Conditions: Homo sapiens, SK-OV-3, 96 h; 4 d incubation; read-out: pIC50 SKOV-3 (converted)
reported_endpoint: IC50
Report as: number unit

Record excerpt, results attached:
>>> observed_result("CC[C@@]1(O)C(=O)OCc2c1cc1n(c2=O)Cc2c-1nc1cc(F)c(C)cc1c2CN1CCS(=O)(=O)CC1CO (stereo partly shown)")
"12.6 nM"
>>> observed_result("CC[C@@]1(O)C(=O)OCc2c1cc1n(c2=O)Cc2c-1nc1cc(F)c(C)cc1c2CN1CCN(S(=O)(=O)c2ccc(N)cc2)CC1")
"7.76 nM"
>>> observed_result("CC[C@@]1(O)C(=O)OCc2c1cc1n(c2=O)Cc2c-1nc1cc(F)c(C)cc1c2CNC(=O)NCc1ccc(N)cc1")
"77.6 nM"
>>> observed_result("CC[C@@]1(O)C(=O)OCc2c1cc1n(c2=O)Cc2c-1nc1cc(F)c(C)cc1c2CNC(=O)OCCO")
"5.01 nM"
>>> observed_result("CC[C@@]1(O)C(=O)OCc2c1cc1n(c2=O)Cc2c-1nc1cc(F)c(N)cc1c2CN")
"0.933 nM"
>>> observed_result("CC[C@@]1(O)C(=O)OCc2c1cc1n(c2=O)Cc2c-1nc1cc(F)c(C)cc1c2CN1CC2CC(C1)C2O (stereo partly shown)")
"0.17 nM"

With those in mind, consider the next compound.
Entry CC[C@@]1(O)C(=O)OCc2c1cc1n(c2=O)Cc2c-1nc1cc(F)c(N)cc1c2CN1CCN(C)CC1 ; assay system SKOV-3 (ovarian cancer); IC50 recorded at 10 nM

====

System: SKOV-3 (ovarian cancer)
Assay: In vitro cytotoxicity of camptothecin analogues (CellTiter-Glo)
Type: cell-based
Details: Homo sapiens, SK-OV-3, 96 h; 4 d incubation; read-out: pIC50 SKOV-3 (converted)
Quick reference for IC50 among some molecules
Give just the numeric value; nM need not be written.

Record excerpt, results attached:
>>> observed_result("CC[C@@]1(O)C(=O)OCc2c1cc1n(c2=O)Cc2c-1nc1cc(F)c(C)cc1c2CN1CCC(F)(F)C(CO)C1 (stereo partly shown) [Compound 120]")
0.251
>>> observed_result("CC[C@@]1(O)C(=O)OCc2c1cc1n(c2=O)Cc2c-1nc1cc(F)c(C)cc1c2CN1CC2CC1(CO)CO2 (stereo partly shown) [Compound 115]")
3.8
>>> observed_result("CC[C@@]1(O)C(=O)OCc2c1cc1n(c2=O)Cc2c-1nc1cc(F)c(OC)cc1c2CN1CCOCC1 [Compound 101]")
1.58
>>> observed_result("CC[C@@]1(O)C(=O)OCc2c1cc1n(c2=O)Cc2c-1nc1cc(F)c(OC)cc1c2CN1CCN(S(=O)(=O)c2ccc(N)cc2)CC1 [Compound 105]")
10.7
>>> observed_result("CC[C@@]1(O)C(=O)OCc2c1cc1n(c2=O)Cc2c-1nc1cc(F)c(N)cc1c2CN1CCN(S(=O)(=O)c2ccccc2)CC1 [Compound 153]")
0.933
>>> observed_result("CC[C@@]1(O)C(=O)OCc2c1cc1n(c2=O)Cc2c-1nc1cc(F)c(N)cc1c2CNS(C)(=O)=O [Compound 146]")
11.2

With those in mind, consider the next molecule.
Record summary for CC[C@@]1(O)C(=O)OCc2c1cc1n(c2=O)Cc2c-1nc1cc(F)c(N)cc1c2CNC(=O)NC [Compound 144] : reported IC50 = 69.2

====

Tested on: SKOV-3 (ovarian cancer)
Assay: In vitro cytotoxicity of camptothecin analogues (CellTiter-Glo)
Type: cell-based
Settings: Homo sapiens, SK-OV-3, 96 h; 4 d incubation; read-out: pIC50 SKOV-3 (converted)
# class 1 = IC50 below 7 nM (exclusive); class 0 = IC50 at/above 7 nM

Before answering, review these 5 worked examples.
>>> class_name("CC[C@@]1(O)C(=O)OCc2c1cc1n(c2=O)Cc2c-1nc1cc(F)c(OC)cc1c2CNC(=O)NC [Compound 133]")
"class 0"
>>> class_name("CC[C@@]1(O)C(=O)OCc2c1cc1n(c2=O)Cc2c-1nc1cc(F)c(C)cc1c2CN1CCNCC1 [Compound 112]")
"class 0"
>>> class_name("CC[C@@]1(O)C(=O)OCc2c1cc1n(c2=O)Cc2c-1nc1cc(F)c(C)cc1c2CN1CC(CO)C1 [Compound 119]")
"class 1"
>>> class_name("CC[C@@]1(O)C(=O)OCc2c1cc1n(c2=O)Cc2c-1nc1cc(F)c(N)cc1c2CNC(C)=O [Compound 147]")
"class 0"
>>> class_name("CC[C@@]1(O)C(=O)OCc2c1cc1n(c2=O)Cc2c-1nc1cc(F)c(C)cc1c2CNS(=O)(=O)CCO [Compound 129]")
"class 0"

IN: Please indicate whether the reported IC50 of CC[C@@]1(O)C(=O)OCc2c1cc1n(c2=O)Cc2c-1nc1cc(F)c(C)cc1c2CNC(=O)NCCO [Compound 136] is strictly below 7 nM.
OUT: class 0

IN: Please indicate whether the reported IC50 of CC[C@@]1(O)C(=O)OCc2c1cc1n(c2=O)Cc2c-1nc1cc(F)c(C)cc1c2CN1CCN(C(=O)OC(C)(C)C)CC1 [Compound 111] is strictly below 7 nM.
OUT: class 0

IN: Please indicate whether the reported IC50 of CC[C@@]1(O)C(=O)OCc2c1cc1n(c2=O)Cc2c-1nc1cc(F)c(C)cc1c2CN1CCOCC1 [Compound 100] is strictly below 7 nM.
OUT: class 1

IN: Please indicate whether the reported IC50 of CC[C@@]1(O)C(=O)OCc2c1cc1n(c2=O)Cc2c-1nc1cc(F)c(OC)cc1c2CNS(=O)(=O)c1ccccc1 [Compound 126] is strictly below 7 nM.
OUT: class 1

IN: Please indicate whether the reported IC50 of CC[C@@]1(O)C(=O)OCc2c1cc1n(c2=O)Cc2c-1nc1cc(F)c(N)cc1c2CNC(=O)OC [Compound 143] is strictly below 7 nM.
OUT: class 1
